- Tested on: tumor cells
- measurement_protocol: Cell-based proliferation (sensitization) assay (Example 2)
- condition_info: ratio of GI90 of the chemotherapy agent in absence to that in presence of Chk1 inhibitor
Fold Sensitization to Agent by Chk1 Inhibitor for assorted molecules
State just the number; it will be interpreted in fold.

Problem: Under tumor cells, report Fold Sensitization to Agent by Chk1 Inhibitor for Nc1ccn([C@@H]2O[C@H](CO)[C@@H](O)[C@@H]2O)c(=O)n1 [Ara-C, cytosine arabinoside]
Result: 9

###

- Test system: tumor cells
- measurement_protocol: Cell-based proliferation (sensitization) assay (Example 2)
- condition_info: ratio of GI90 of the chemotherapy agent in absence to that in presence of Chk1 inhibitor
quantity_kind: Fold Sensitization to Agent by Chk1 Inhibitor (fold)
State the answer as a number, implicitly in fold.

[
  {
    "compound": "CC[C@@]1(O)C(=O)OCc2c1cc1n(c2=O)Cc2cc3ccccc3nc2-1",
    "reported_measurement": 5
  },
  {
    "compound": "O=c1[nH]cc(F)c(=O)[nH]1",
    "reported_measurement": 12
  },
  {
    "compound": "Nc1ccn([C@@H]2O[C@H](CO)[C@@H](O)C2(F)F)c(=O)n1",
    "reported_measurement": 12
  }
]

Problem: Check tumor cells data and give Fold Sensitization to Agent by Chk1 Inhibitor for N.N.[Cl][Pt][Cl] [Cisplatin, cisplatin] .
Result: 3

Problem: Provide Fold Sensitization to Agent by Chk1 Inhibitor, recorded with tumor cells, of COc1cc([C@@H]2c3cc4c(cc3[C@@H](O[C@@H]3O[C@@H]5CO[C@@H](C)O[C@H]5[C@H](O)[C@H]3O)[C@H]3COC(=O)[C@H]23)OCO4)cc(OC)c1O [Etoposide, etoposide]
Result: 3
